Molecular target: T1, HLA-DQ2.5 on Ba/F3 cells (not in the form of a complex with a linked peptide) (human, UniProt P01909 24-254; P01920 33-261)
T1 construct: also called Ba/F3-HLA-DQ2.5; No peptide
T1 MHC II alpha: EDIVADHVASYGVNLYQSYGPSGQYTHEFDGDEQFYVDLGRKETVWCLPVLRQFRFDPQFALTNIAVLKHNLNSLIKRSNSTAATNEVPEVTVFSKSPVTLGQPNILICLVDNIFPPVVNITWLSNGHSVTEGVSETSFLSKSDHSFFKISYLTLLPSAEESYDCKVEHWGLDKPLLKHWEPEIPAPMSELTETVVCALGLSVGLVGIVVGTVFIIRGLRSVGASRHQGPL
T1 MHC II beta: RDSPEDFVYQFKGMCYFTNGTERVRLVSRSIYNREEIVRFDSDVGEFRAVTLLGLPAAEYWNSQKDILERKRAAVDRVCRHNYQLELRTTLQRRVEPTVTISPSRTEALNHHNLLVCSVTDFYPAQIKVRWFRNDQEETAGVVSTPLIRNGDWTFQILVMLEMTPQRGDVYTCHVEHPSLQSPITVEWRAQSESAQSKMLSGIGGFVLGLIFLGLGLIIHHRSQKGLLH
Test: FACS
Measurement Type: FIG. 30 FACS value (IC17=0, DQN0139bb=100)

| Binder | Reported Measurement |
| --- | --- |
| DQN0282ff (antibody, human IgG1, kappa, V domains shown, also called DQN0282Hf; DQN0282Lf) VH: QSVEESGGRLVTPGTPLTLSCKASGFDFSIYYMSWVRQAPGKGLEWIGVINSGGGVTWYASWVKGRFTISKTSTTVDLKITSPTTEDTATYFCARLGDSNHYDLWGPGTLVTVSS VL: AYDMTQTPSSVSAAVGGTVTIKCQASETISSYLAWYQQKPGQRPQLLIYDASNLASGVPSRFKGSGSGTEFTLTISDLECADAATYYCQTHYYITSTTFGGGTKVEIKR | 3 |
| DQN0225dd (antibody, human IgG1, kappa, V domains shown, also called DQN0225Hd; DQN0225Ld) VH: QSLEESGGGLVKPGGTLTLTCTASGFSFSSAYYMCWVRQAPGKGLEWIACIYVGSGSTYYASWAQGRCTISKASSTTVTLQMTSLTAADTATYFCARDPLIYYYYGELNLWGPGTLVTVSS VL: AVVLTQTASPVSAPVGGTVTIKCQASEDISSNLAWYQQKPGQRPKVLIYSASTLASGVSSQFKGSGSGTQFTLTISDLECADAATYYCQSYYDISSVTFGGGTKVEIKR | -0.1 |
| DQN0271hh (antibody, human IgG1, kappa, V domains shown, also called DQN0271Lh) VH: QSLEESGGGLVKPGASLTLTCKASGFSFSSGYYMCWVRQAPGKGLEWIACIYAGSPDLTYYATWAKGRLTISTTSSTTVTLQLTSLTAADTATYFCARDPGNWGGYDDVRLWGPGTLVTVSS VL: AQVLTQTPSPVSAAVGGTVTISCQSSQSIYSNYLSWFQQKTGQPPKLLIYRASTLASGVPSRFKGSGSGTEFTLTISGVECDDAATYYCQGYYSGAIWTFGGGTKVEIKR | 0 |
